Species: Rattus norvegicus
measurement.notes: Open TG-GATES - Regimen: Single
Type: toxicity, organism-based, Sprague-Dawley
Set-up: regimen Single, gender Male, age 6 weeks
assay.context: in vivo, po, 0 mg/kg, 9 h, tissue Plasma, route gavage, dose level Control
recorded.metric: A/G
Number only, no unit.

[[record]]
molecule = "NNC(=O)c1ccncc1 [ISONIAZID]"
recorded_metric = "A/G"
reported_measurement = 1.7

[[record]]
molecule = "COC1=CC(=O)C[C@@H](C)[C@]12Oc1c(Cl)c(OC)cc(OC)c1C2=O [GRISEOFULVIN]"
recorded_metric = "A/G"
reported_measurement = 1.7

[[record]]
molecule = "CCOC(=O)CCC(=O)O[C@H]1[C@H](O[C@@H]2[C@@H](C)[C@H](O[C@H]3C[C@@](C)(OC)[C@@H](O)[C@H](C)O3)[C@@H](C)C(=O)O[C@H](CC)[C@@](C)(O)[C@H](O)[C@@H](C)C(=O)[C@H](C)C[C@@]2(C)O)O[C@H](C)C[C@@H]1N(C)C [ERYTHROMYCIN ETHYLSUCCINATE]"
recorded_metric = "A/G"
reported_measurement = 1.2

[[record]]
molecule = "CCCNC(=O)NS(=O)(=O)c1ccc(Cl)cc1 [CHLORPROPAMIDE]"
recorded_metric = "A/G"
reported_measurement = 0.9


Please fill in: A/G reported for NC(N)=Nc1nc(CSCCC(N)=NS(N)(=O)=O)cs1 [FAMOTIDINE] = 1.5

Please fill in: A/G reported for CCOc1ccc(NC(=O)CC(C)O)cc1 (centres undefined) [BUCETIN] = 0.9

Please fill in: A/G reported for CC1=C(/C=C/C(C)=C/C=C/C(C)=C/CO)C(C)(C)CCC1 [RETINOL] = 1.2

Please fill in: A/G reported for Cc1ccc(C)c(OCCCC(C)(C)C(=O)O)c1 [GEMFIBROZIL] = 0.9

Please fill in: A/G reported for CN(C)CCN(Cc1cccs1)c1ccccn1 = 1.2

----------
Reported Na by item:
Species on record: Rattus norvegicus
measurement.notes: Open TG-GATES - Regimen: Daily Repeat
Type: toxicity, organism-based, Sprague-Dawley
Set-up: regimen Daily Repeat, gender Male, age 6 weeks
assay.context: in vivo, po, 1000 mg/kg, 72 h, tissue Plasma, route gavage, dose level High, time 3 day

# count of solved cases: 4
[[record]]
compound = "COC1=CC(=O)C[C@@H](C)[C@]12Oc1c(Cl)c(OC)cc(OC)c1C2=O"
recorded_metric = "Na"
reported_measurement = "140.2 meq/L"

[[record]]
compound = "CCOC(=O)CCC(=O)O[C@H]1[C@H](O[C@@H]2[C@@H](C)[C@H](O[C@H]3C[C@@](C)(OC)[C@@H](O)[C@H](C)O3)[C@@H](C)C(=O)O[C@H](CC)[C@@](C)(O)[C@H](O)[C@@H](C)C(=O)[C@H](C)C[C@@]2(C)O)O[C@H](C)C[C@@H]1N(C)C [ERYTHROMYCIN ETHYLSUCCINATE]"
recorded_metric = "Na"
reported_measurement = "141.8 meq/L"

[[record]]
compound = "CCOc1ccc(NC(=O)CC(C)O)cc1 (stereo not given)"
recorded_metric = "Na"
reported_measurement = "144.6 meq/L"

[[record]]
compound = "NC(N)=Nc1nc(CSCCC(N)=NS(N)(=O)=O)cs1"
recorded_metric = "Na"
reported_measurement = "141.2 meq/L"


Proceeding to the next compound to report its Na.
Please fill in: Na reported for COc1ccc2[nH]c([S+]([O-])Cc3ncc(C)c(OC)c3C)nc2c1 (stereo not given) = 140.2 meq/L
